- measurementTarget: 5-lipoxygenase (5-LO) (Homo sapiens, UniProt P09917)
- Construct: gene ALOX5
- Sequence (P09917 whole entry): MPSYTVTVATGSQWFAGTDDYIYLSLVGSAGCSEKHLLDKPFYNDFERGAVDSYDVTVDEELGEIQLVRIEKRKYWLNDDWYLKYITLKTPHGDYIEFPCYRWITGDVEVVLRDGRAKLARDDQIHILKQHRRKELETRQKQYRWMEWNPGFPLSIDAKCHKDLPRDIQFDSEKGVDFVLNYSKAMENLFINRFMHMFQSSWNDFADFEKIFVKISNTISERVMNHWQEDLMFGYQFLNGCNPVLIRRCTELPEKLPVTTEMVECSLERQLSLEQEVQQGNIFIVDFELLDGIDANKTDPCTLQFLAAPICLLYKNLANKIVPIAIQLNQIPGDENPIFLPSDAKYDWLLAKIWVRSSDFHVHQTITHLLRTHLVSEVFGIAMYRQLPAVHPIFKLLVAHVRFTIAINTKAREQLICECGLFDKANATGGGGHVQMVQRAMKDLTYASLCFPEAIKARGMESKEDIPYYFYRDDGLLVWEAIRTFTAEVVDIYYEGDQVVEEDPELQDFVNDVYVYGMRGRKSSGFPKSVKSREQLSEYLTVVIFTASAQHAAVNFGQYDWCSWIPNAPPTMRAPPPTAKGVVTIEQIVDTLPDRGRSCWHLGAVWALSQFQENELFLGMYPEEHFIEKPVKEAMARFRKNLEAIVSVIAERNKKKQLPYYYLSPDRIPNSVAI
- Sequence (P20292 whole entry partner): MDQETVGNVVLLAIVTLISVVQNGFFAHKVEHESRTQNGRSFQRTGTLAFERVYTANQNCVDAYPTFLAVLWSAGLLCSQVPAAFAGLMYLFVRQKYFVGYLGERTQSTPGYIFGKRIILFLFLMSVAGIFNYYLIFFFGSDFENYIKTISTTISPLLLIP
- assayName: 5-LO product biosynthesis (RP-HPLC) in thapsigargin-stimulated human PMNL; also HEK293 cells expressing 5-LO and FLAP
- Format: cell-based
- runConditions: read-out: IC50 (μM) [SEM]^*
propertyMeasured: IC50 (µM)
Just the number please, in µM, no unit attached.

Prompt: # lookup: IC50 of O=C(/C=C/c1ccc(O)c(O)c1)OCCc1ccccc1
Response: 1.11
